study.system: hEBI2 (Homo sapiens, UniProt P32249)
Sequence (P32249 whole entry): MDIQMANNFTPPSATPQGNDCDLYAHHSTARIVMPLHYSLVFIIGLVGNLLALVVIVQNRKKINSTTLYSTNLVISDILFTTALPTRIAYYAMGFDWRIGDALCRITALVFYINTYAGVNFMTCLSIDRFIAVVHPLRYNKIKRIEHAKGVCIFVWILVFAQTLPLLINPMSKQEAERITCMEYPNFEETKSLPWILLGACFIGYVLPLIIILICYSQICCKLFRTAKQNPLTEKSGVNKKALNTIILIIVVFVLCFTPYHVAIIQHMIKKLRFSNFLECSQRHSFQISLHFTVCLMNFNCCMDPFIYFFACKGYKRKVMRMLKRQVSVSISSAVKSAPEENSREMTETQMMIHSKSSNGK
method: GTPγS assay on EBI2 membranes
Format: biochemical
Design: expressed in transfected cells; host or cells: CHO-K1 expressing apoaequorin (CHO-Aeq) with Gqi5; line E2
pEC50 values for the compounds below.
Units for pEC50: none; it is -log10 of a concentration expressed in mol/L.

Here are 2 compounds together with their reported answers.
{"compound": "C[C@H](CCCC(C)(C)O)[C@H]1CC[C@H]2[C@@H]3CC=C4C[C@@H](O)CC[C@]4(C)[C@H]3CC[C@]12C [25DHC, 25-hydroxycholesterol]", "assay.value": 6.14}
{"compound": "CC(CO)CCC[C@@H](C)[C@H]1CC[C@H]2[C@@H]3[C@H](O)C=C4C[C@@H](O)CC[C@]4(C)[C@H]3CC[C@]12C (stereo partly drawn)", "assay.value": 8.29}

// moving on: another record for pEC50
Request: Need pEC50, item C[C@H](CCCC(C)(C)O)[C@H]1CC[C@H]2[C@@H]3[C@H](O)C=C4C[C@@H](O)CC[C@]4(C)[C@H]3CC[C@]12C
Result: 8.12
